The following molecules have recorded Ki on Sodium-dependent noradrenaline transporter (Bos taurus, UniProt P51143).
Sequence (P51143 whole entry): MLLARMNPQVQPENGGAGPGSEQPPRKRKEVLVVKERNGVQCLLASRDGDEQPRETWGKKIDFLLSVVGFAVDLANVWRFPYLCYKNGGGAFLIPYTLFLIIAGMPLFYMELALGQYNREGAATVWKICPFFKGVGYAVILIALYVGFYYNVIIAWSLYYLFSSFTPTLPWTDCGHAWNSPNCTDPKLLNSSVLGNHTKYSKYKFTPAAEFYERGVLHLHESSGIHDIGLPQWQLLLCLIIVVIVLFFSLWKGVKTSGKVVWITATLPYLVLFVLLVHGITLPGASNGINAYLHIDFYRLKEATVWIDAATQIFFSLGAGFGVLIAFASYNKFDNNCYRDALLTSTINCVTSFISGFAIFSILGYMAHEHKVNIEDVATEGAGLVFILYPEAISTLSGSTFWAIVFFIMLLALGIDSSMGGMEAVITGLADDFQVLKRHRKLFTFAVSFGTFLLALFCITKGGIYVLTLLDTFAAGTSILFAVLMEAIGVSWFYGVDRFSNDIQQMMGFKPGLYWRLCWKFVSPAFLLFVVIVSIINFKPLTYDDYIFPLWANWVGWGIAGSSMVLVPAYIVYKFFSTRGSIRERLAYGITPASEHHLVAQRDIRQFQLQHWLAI
Give the quantity in nM, number only.

I'd like to know its Ki. The molecule in question is NCCc1ccc(O)c(O)c1 397

I'd like to know its Ki. The molecule in question is CN(C)CCCN1c2ccccc2CCc2ccccc21 93.6

I'd like to know its Ki. The molecule in question is CNCC(O)c1ccc(O)c(O)c1 (centres undefined) [EPINEPHRINE] 5000

I'd like to know its Ki. The molecule in question is C[n+]1ccc(-c2ccccc2)cc1 [NSC_39484] 570
